Molecular target: GPR40 (Homo sapiens)
Sequence (O14842 whole entry): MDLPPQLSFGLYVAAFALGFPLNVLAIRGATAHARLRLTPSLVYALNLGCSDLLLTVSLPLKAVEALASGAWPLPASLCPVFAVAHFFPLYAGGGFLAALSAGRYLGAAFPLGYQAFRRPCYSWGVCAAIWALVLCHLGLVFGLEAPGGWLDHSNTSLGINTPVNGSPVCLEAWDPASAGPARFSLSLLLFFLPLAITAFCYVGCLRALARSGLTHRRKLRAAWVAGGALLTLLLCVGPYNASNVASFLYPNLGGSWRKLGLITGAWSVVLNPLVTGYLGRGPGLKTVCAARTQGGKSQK
Assay: Inositol phosphate accumulation assay (A9_GPR40 cells)
Type: cell-based
Set-up: expressed in transfected cells; host or cells: CHO cells stably transfected with GPR40 and aequorin
Conditions: inositol phosphate assay, A9_GPR40 cells, 1 hour; read-out: IP3 EC50
EC50 values, listed per item

Recorded EC50, per entry:
{"compound": "COc1ccc(F)c(-c2ccc(COc3cccc([C@@H](CC(=O)O)CC4CC4)c3)cc2[C@H]2CCCC2(C)C)c1 (single isomer, unassigned) [Example 69.8]", "observedValue": "< 10 nM"}
{"compound": "CCC(CC(=O)O)c1cc(F)cc(OCc2ccc(-c3cc(OC)ccc3F)c(C3=CCCC3(C)C)c2)c1 (single isomer, unassigned) [Example 88.2]", "observedValue": "10 to 100 nM"}

Recorded EC50 (compound COc1cc(-c2ccc(COc3cccc(C(CC(=O)O)CC4CC4)c3F)cc2C(OC)C(C)(C)C)c(F)cn1 (single isomer, unassigned) [Example 84.9] ): < 10 nM
